Please provide measured activation at 10 µM for the entries that follow.
Molecular target: human GRIN1 (transcript variant NR1-3) and GRIN2D expressed in Xenopus oocytes (Homo sapiens)
Construct: GenScript (GRIN2D synthesis) SC115601; host or cells: Xenopus oocytes injected with cRNA (1 GluN1 : 2 GluN2)
Assay: NR2D oocyte potentiation assay (two-electrode voltage clamp)
Type: cell-based
Details: 10 uM test compound; glutamate and glycine 10 μM each; holding potential −40 mV
Experimental: NR2D Oocyte Potentiation Assay. […] Currents were recorded using a two-electrode voltage-clamp amplifier (Oocyte Clamp OC-725C; Warner Instrument Corp, Hamden, Conn.), and digitized using Digidata 1550A and pClamp (v. 10) software (Molecular Devices, Sunnyvale, Calif.). […] Fraction of current remaining was calculated as [(current in presence of test compound−background current)/(co-agonist current−background current)] and IC50 values were computed using Prism 6.0 (Graphpad).

Solved entries (count: 8):
CC(C)(O)c1ccc(-c2nc3n(c(=O)c2C#N)CCCS3)cn1: 10 to 100%
CC(C)(C)c1ccc(-c2nc3n(c(=O)c2C#N)CC(CF)CS3)cn1 (stereo not drawn): 500 to 1000%
CC1(c2ccc(-c3nc4n(c(=O)c3C#N)CCCS4)cn2)CC1: 500 to 1000%
C[C@@H]1CSc2nc(-c3ccc(C4(C)CC4)nc3)c(C#N)c(=O)n2C1: > 1000%
C[C@H]1CSc2cc(-c3cnc(C(C)(C)C)nc3)c(C#N)c(=O)n2C1: > 1000%
CC(C)(C)c1ccc(-c2nc3n(c(=O)c2C#N)CC(F)CS3)cn1 (stereo not drawn): 10 to 100%
C[C@@H]1CSc2cc(-c3cnc(C(C)(C)C)c(F)c3)c(C#N)c(=O)n2C1: 500 to 1000%
CC(C)(CF)c1ccc(-c2nc3n(c(=O)c2C#N)CCCS3)cn1: 100 to 500%

Enquiry: Entry N#Cc1c(-c2cnc(C3CC3)nc2)nc2n(c1=O)CCCS2 has what activation at 10 µM?
Return: 10 to 100%

---

Please provide measured activation at 10 µM for the entries that follow.
molecular target: human GRIN1 (transcript variant NR1-3) and GRIN2D expressed in Xenopus oocytes (Homo sapiens, UniProt O15399); construct: GenScript (GRIN2D synthesis) SC115601; host or cells: Xenopus oocytes injected with cRNA (1 GluN1 : 2 GluN2); experiment: NR2D oocyte potentiation assay (two-electrode voltage clamp); type: cell-based; conditions: 10 uM test compound; glutamate and glycine 10 μM each; holding potential −40 mV
Sequence (O15399 28-1336, other chains not shown): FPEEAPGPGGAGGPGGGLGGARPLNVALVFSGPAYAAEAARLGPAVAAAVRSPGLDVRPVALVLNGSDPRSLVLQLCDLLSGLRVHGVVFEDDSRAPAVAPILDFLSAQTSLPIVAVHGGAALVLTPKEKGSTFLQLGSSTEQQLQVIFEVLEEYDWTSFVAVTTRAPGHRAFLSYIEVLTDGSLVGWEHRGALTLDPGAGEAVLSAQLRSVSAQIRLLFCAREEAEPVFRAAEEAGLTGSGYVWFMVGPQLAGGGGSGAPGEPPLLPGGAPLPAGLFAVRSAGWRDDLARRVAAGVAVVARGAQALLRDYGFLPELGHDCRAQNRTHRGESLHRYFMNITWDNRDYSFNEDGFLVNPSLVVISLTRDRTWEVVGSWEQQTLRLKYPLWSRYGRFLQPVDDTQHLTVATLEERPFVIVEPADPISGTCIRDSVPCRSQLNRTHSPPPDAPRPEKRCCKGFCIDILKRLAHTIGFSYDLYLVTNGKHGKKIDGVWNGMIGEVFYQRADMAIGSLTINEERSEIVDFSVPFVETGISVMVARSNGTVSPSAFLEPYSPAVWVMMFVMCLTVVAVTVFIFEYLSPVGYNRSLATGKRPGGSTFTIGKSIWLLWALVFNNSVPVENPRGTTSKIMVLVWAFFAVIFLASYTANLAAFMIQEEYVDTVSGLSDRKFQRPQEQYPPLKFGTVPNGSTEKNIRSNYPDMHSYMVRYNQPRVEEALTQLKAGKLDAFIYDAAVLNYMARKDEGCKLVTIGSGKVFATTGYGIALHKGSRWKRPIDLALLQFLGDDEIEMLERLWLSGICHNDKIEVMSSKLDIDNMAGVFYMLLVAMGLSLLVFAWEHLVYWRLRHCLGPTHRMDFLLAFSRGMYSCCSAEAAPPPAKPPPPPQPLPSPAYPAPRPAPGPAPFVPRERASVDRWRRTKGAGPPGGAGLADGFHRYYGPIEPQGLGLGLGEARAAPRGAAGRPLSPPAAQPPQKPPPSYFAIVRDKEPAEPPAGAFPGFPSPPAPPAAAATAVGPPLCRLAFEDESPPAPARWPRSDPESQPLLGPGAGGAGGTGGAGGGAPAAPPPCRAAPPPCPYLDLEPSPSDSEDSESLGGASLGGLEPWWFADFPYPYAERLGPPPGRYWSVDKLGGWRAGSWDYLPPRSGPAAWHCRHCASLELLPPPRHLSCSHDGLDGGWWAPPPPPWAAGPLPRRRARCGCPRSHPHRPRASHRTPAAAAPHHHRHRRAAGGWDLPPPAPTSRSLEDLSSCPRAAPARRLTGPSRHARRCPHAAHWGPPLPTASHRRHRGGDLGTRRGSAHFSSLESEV

Your task in this section: give activation at 10 µM for each listed record.
1. CC(C)(C)c1ncc(-c2nc3n(c(=O)c2C#N)CC(F)CS3)cn1 (stereo not drawn)
2. N#Cc1c(-c2ccc(C3CC3)cc2)nc2n(c1=O)CCCS2
3. CC(=O)NC[C@H]1CSc2nc(-c3cnc(C(C)(C)C)c(F)c3)c(C#N)c(=O)n2C1

Return:
100 to 500%
10 to 100%
500 to 1000%

Your task in this section: give activation at 10 µM for each listed record.
1. CCN1CSc2nc(-c3ccc(C(C)(C)C)nc3)c(C#N)c(=O)n2C1
2. C[C@H]1CSc2nc(-c3ccc(C(C)(C)C)nc3)c(C#N)c(=N)n2C1
3. CC1CSc2nc(-c3ccc(C4(C)CC4(F)F)nc3)c(C#N)c(=O)n2C1 (stereo not drawn)
4. CC(C)(C)c1ncc(-c2nc3n(c(=N)c2C#N)CCCS3)cc1F
5. CC(C)(C)c1ncc(-c2nc3n(c(=O)c2C#N)C[C@@H](CF)CS3)cn1
6. CC1(c2ncc(-c3cc4n(c(=O)c3C#N)CCCS4)cc2F)CC1

Return:
1. 10 to 100%
2. 100 to 500%
3. 500 to 1000%
4. > 1000%
5. 500 to 1000%
6. > 1000%

---

target: human GRIN1 (transcript variant NR1-3) and GRIN2D expressed in Xenopus oocytes (Homo sapiens, UniProt O15399); construct: GenScript (GRIN2D synthesis) SC115601; host or cells: Xenopus oocytes injected with cRNA (1 GluN1 : 2 GluN2); assay: NR2D oocyte potentiation assay (two-electrode voltage clamp); type: cell-based; settings: 10 uM test compound; glutamate and glycine 10 μM each; holding potential −40 mV
RESULT_TYPE: activation at 10 µM

Solved entries (count: 4):
COC(C)(C)c1ccc(-c2nc3n(c(=O)c2C#N)CCCS3)cn1: 10 to 100%
CC(C)(C)c1ccc(-c2nc3n(c(=O)c2C#N)CC=CCS3)cn1: 10 to 100%
CC(C)(C)c1ccc(-c2nc3n(c(=O)c2C#N)CC(F)(F)CS3)cn1: 100 to 500%
CC(C)(C)c1ccc(-c2nc3n(c(=O)c2C#N)CCCS3)cc1: > 1000%

Enquiry: Entry CC(C)(C)c1cc(-c2nc3n(c(=O)c2C#N)CCCS3)ccn1 has what activation at 10 µM?
Return: 10 to 100%

---

target: human GRIN1 (variant NR1-3) and GRIN2D expressed in HEK293 cells (Homo sapiens); construct: GenScript (GRIN2D synthesis) SC115601; host or cells: HEK293; experiment: GluN2D PAM CIQ fluorescence assay (Fluo-8 calcium, FDSS 6000); format: cell-based; settings: relative to CIQ (100 uM) = 100%, read-out: NR2D Percent CIQ Avg Max Measured Effect
Sequence (O15399 28-1336, other chains not shown): as above
RESULT_TYPE: Emax

C[C@H]1CSc2nc(-c3ccc(C(C)(C)C)nc3)c(C#N)c(=O)n2C1: 100 to 200%

Your task in this section: give Emax for each listed record.
1. CSc1ccc(-c2nc3n(c(=O)c2C#N)CCS3)cc1
2. CC(C)(C)c1ccc(-c2nc3n(c(=O)c2C#N)CCCS3)cc1
3. CC(C)(C)c1cc(-c2nc3n(c(=O)c2C#N)CCCS3)ccn1

Return:
1: 100 to 200%; 2: 100 to 200%; 3: 100 to 200%

Your task in this section: give Emax for each listed record.
1. Cc1ccc(-c2ccc(-c3nc4n(c(=O)c3C#N)CCCS4)c(F)c2)cc1
2. CC(C)(C)c1ccc(-c2nc3n(c(=N)c2C#N)CCCS3)cn1
3. CC(C)(C)c1ccc(-c2nc3n(c(=N)c2C#N)CCCS3)cc1
4. CC(C)c1ccc(-c2ccc(-c3nc4n(c(=O)c3C#N)CCCS4)c(F)c2)cc1
5. N#Cc1c(-c2ccc(C3CC3)cc2)nc2n(c1=O)CCCS2
6. CC1CCSc2nc(-c3ccc(C(C)(C)C)cc3)c(C#N)c(=O)n21 (stereo not drawn)
7. Cc1ccc(-c2nc3n(c(=O)c2C#N)CCCS3)cc1

Return:
10 to 50%
100 to 200%
100 to 200%
10 to 50%
10 to 50%
100 to 200%
50 to 100%

---

Please provide measured activation at 10 µM for the entries that follow.
biological target: human GRIN1 (transcript variant NR1-3) and GRIN2D expressed in Xenopus oocytes (Homo sapiens); construct: GenScript (GRIN2D synthesis) SC115601; host or cells: Xenopus oocytes injected with cRNA (1 GluN1 : 2 GluN2); assay: NR2D oocyte potentiation assay (two-electrode voltage clamp); type: cell-based; conditions: 10 uM test compound; glutamate and glycine 10 μM each; holding potential −40 mV
Structures can show the parent of a compound that is named as a salt.

Solved entries (count: 4):
CC(C)(C)c1ccc(-c2nc3n(c(=O)c2C#N)CC2(COC2)CS3)cc1: 10 to 100%
CC(C)(C)c1ccc(-c2nc3n(c(=O)c2C#N)CC(CO)CS3)cn1 (stereo not drawn): 500 to 1000%
CC(C)(C)c1ccc(-c2nc3n(c(=O)c2C#N)CC(CN)CS3)cn1 (stereo not drawn) [Example 145, hydrochloride]: 10 to 100%
CN(C)CC1CSc2nc(-c3cnc(C(C)(C)C)c(F)c3)c(C#N)c(=O)n2C1 (stereo not drawn): 10 to 100%

Your task in this section: give activation at 10 µM for each listed record.
1. CC1CSc2nc(-c3cccnc3C34CC(C3)C4)c(C#N)c(=O)n2C1 (stereo not drawn)
2. CCOC(=O)c1ccc(-c2nc3n(c(=O)c2C#N)CC(C)CS3)cn1 (stereo not drawn)
3. CC(C)(C)c1ncc(-c2nc3n(c(=O)c2C#N)CC(CO)CS3)cc1F (stereo not drawn)

Return:
< 10%
< 10%
> 1000%

Your task in this section: give activation at 10 µM for each listed record.
1. CC(C)(C)c1ccc(-c2nc3sccn3c(=O)c2C#N)cn1
2. C=C(C)c1ccc(-c2nc3n(c(=O)c2C#N)CCCS3)cn1

Return:
1: 100 to 500%; 2: 100 to 500%

---

target: human GRIN1 (transcript variant NR1-3) and GRIN2D expressed in Xenopus oocytes (Homo sapiens); construct: GenScript (GRIN2D synthesis) SC115601; host or cells: Xenopus oocytes injected with cRNA (1 GluN1 : 2 GluN2); test: NR2D oocyte potentiation assay (two-electrode voltage clamp); type: cell-based; conditions: 10 uM test compound; glutamate and glycine 10 μM each; holding potential −40 mV
RESULT_TYPE: activation at 10 µM

Solved entries (count: 4):
C[C@@H]1CSc2cc(-c3ccc(C(C)(C)C)nc3)c(C#N)c(=O)n2C1: > 1000%
CC(C)c1ccc(-c2nc3n(c(=O)c2C#N)CCS3)cc1: 10 to 100%
CC(C)(C)c1ncc(-c2nc3n(c(=O)c2C#N)C[C@@H](CO)CS3)cn1: 100 to 500%
CC(C)(C)c1ncc(-c2nc3n(c(=O)c2C#N)CC(CO)CS3)cn1 (stereo not drawn): 500 to 1000%

Your task in this section: give activation at 10 µM for each listed record.
1. CC(C)(C)c1ccc(-c2nc3n(c(=O)c2C#N)CCCS3)cn1
2. COCSCC1COc2nc(-c3cnc(C(C)(C)C)c(F)c3)c(C#N)c(=O)n2C1 (stereo not drawn)
3. COc1cc(-c2nc3n(c(=O)c2C#N)CC(C)CS3)cnc1C(C)(C)C (stereo not drawn)
4. C=Cc1c(-c2ccc(C(C)(C)C)cc2)nc2n(c1=O)CCCC2
5. CN(C)c1ccc(-c2nc3n(c(=O)c2C#N)CCCS3)cn1

Return:
1. 500 to 1000%
2. > 1000%
3. > 1000%
4. < 10%
5. 10 to 100%
